- PROCEDURE SUMMARY: Total antioxidant capacity of the compound at 50 uM relative to control
- Assay type: physicochemical
TAC by entry:

| COMPOUND | UNITS | TAC |
| --- | --- | --- |
| O=c1cc(O)cc(/C=C/c2ccc(O)c(O)c2)o1 | U | 9.27 |
| CC(C)CC(c1c(O)cc(/C=C/c2ccc(O)c(O)c2)oc1=O)c1c(O)cc(/C=C/c2ccc(O)c(O)c2)oc1=O | U | 5.28 |
| O=C(O)CCC(c1c(O)cc(/C=C/c2ccc(O)c(O)c2)oc1=O)c1c(O)cc(/C=C/c2ccc(O)c(O)c2)oc1=O | U | 8.41 |
| CC(C)C(c1c(O)cc(/C=C/c2ccc(O)c(O)c2)oc1=O)c1c(O)cc(/C=C/c2ccc(O)c(O)c2)oc1=O | U | 2.88 |
| O=C1CC(c2c(O)cc(/C=C/c3ccc(O)c(O)c3)oc2=O)CN1 (stereo not drawn) | U | 2.78 |
| COC(=O)CCC(c1c(O)cc(/C=C/c2ccc(O)c(O)c2)oc1=O)c1c(O)cc(/C=C/c2ccc(O)c(O)c2)oc1=O | U | 3.4 |
| O=C1O[C@H]([C@@H](O)CO)C(O)=C1O | U | 17.42 |
| CC(c1c(O)cc(/C=C/c2ccc(O)c(O)c2)oc1=O)c1c(O)cc(/C=C/c2ccc(O)c(O)c2)oc1=O | U | 2.67 |
